# method.summary: chemical genetic growth profiling, strain panel (AID 1159580);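 note: tested at 20 µM; growth read once vehicle control cultures reached saturation at 30 °C; 1 = growth at the plate median or of vehicle wells; lower values mean less growth of the strain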
# test.settings: S. cerevisiae deletion strains, growth OD, locus YCL029C, strain bik1, stronger effect = lower value
Out of some 5,500 compounds screened, about 2,000 (36%) were called active. Roughly 18% stayed inconclusive and do not appear here. Some of the results follow.
observed.property: normalized growth
Returns: the value as a bare number; no unit string appended.

Q: Return reported normalized growth; argument: NC(=O)CC[C@@H](N)C(=O)O
A: 1.01

Q: So what's the measured normalized growth for this one? O=C1CCc2cc(OCCCCc3nnnn3C3CCCCC3)ccc2N1
A: 0.988

Q: Form field: reported normalized growth of CN(C)CC/C=C1/c2ccccc2COc2ccccc21
A: 1.02

Q: Bench note: what normalized growth did CCCCCCCCCCCCCCCC[n+]1ccccc1 show?
A: 0.058

Q: Query (molecule): COc1cc([C@@H]2c3cc4c(cc3[C@H](OC(C)=O)[C@H]3COC(=O)[C@H]23)OCO4)cc(OC)c1OC ; field requested: normalized growth
A: 0.986

Q: Given CN(C)CCC=C1c2ccccc2CCc2ccccc21 , state its recorded normalized growth.
A: 1

Q: Please give the measured normalized growth for this molecule: CN1CCN2c3ccccc3Cc3ccccc3C2C1 (stereo unspecified)
A: 0.99

Q: Fill in: normalized growth of CC(C)Oc1ccc2c(=O)cc(-c3ccccc3)oc2c1 is ___
A: 0.88

Q: Look up normalized growth for this molecule: CSc1ccc2c(c1)C(N1CCN(C)CC1)Cc1ccccc1S2 (stereo unspecified)
A: 0.987

Q: Which normalized growth reading was recorded for the molecule CC1(C)O[C@@H]2CC3C4C[C@H](F)C5=CC(=O)C=C[C@]5(C)[C@@]4(F)[C@@H](O)C[C@]3(C)[C@]2(C(=O)CO)O1 (stereo partly specified) ?
A: 1.01

Q: I'd like to know its normalized growth. The molecule in question is CCC1C2CC3C4N(C)c5ccccc5C45CC(C2C5OC(C)=O)N3C1OC(C)=O (stereo unspecified)
A: 1.02
